biological target: DNA; assay: DNA binding of unmodified sapphyrin; conditions: unmodified sapphyrin; read-out: binding constant for DNA
observed.property: Kd

(Q) Lab note: need Kd for `CCc1c(CC)c2cc3nc(cc4[nH]c(c(C)c4CC)c4[nH]c(cc5nc(cc1[nH]2)C(CCC(=O)N(CCO)CCO)=C5C)c(CC)c4C)C(C)=C3CCC(=O)N(CCO)CCO` on DNA, anyone have it?
(A) ~1000 nM
